Just for reference, patent US20170088602A1 is where these values come from.

targetOrSystem: T1, human myostatin (mature, recombinant; R&D Systems) (human, UniProt O14793 267-375)
T1 sequence: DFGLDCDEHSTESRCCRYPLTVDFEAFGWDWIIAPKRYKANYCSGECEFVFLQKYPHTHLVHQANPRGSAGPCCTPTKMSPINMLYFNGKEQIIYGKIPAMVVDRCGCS
experimentNotes: cell-based or functional assay
measure: ARE-luciferase IC50 (pM)

ATI-1267 [N-ethylmaleimide] (designed binder, N-ethylmaleimide on the Cys of the EGSGC tail, cysteine mutant of 2525_D02) MGVSDVPRDLEVVAATPTSLLISWTLPHAGRAHYYRITYGETGGNSPVQEFTVPGRGVTATISGLKPGVDYTITVYAVTVTTTSVILYKPISINYRTEGSGCHHHHHH: 60

(A) 3008_D04 (designed binder) MGVSDVPRDLEVVAATPTSLLISWSLPHNGVAHYYRITYGETGGNSPVQEFTVPGRGVTATISGLKPGVDYTITVYAVTVTREEVISYKPISINYRTEIDKPSQHHHHHH
(B) 2523_G06 (designed binder) MGVSDVPRDLEVVAATPTSLLISWWAPLGLARYYRITYGETGGNSPVQEFTVPGRGSTATISGLKPGVDYTITVYAVTIFRTGMVQYDPISINYRTEIDKPSQHHHHHH
(C) 3007_B08 (designed binder) MGVSDVPRDLEVVAATPTSLLISWSLPTPGLAHYYRITYGETGGNSPVQEFTVPGRGVTATISGLKPGVDYTITVYAVTVTHHGVIGYKPISINYRTEIDKPSQHHHHHH
Put the binders in ascending order of ARE-luciferase IC50. Put the labels in the requested order and write them down.
C, A, B
(C: 60 pM, A: 90 pM, B: 4200 pM)
